System: Pseudomonas aeruginosa
Experiment: Antibacterial activity against Pseudomonas aeruginosa after 18 hrs by macrodilution method
Format: functional
recordedEndpoint: MIC (µg/mL)

Here's what some known entries look like.
COC(=O)CC[C@@H](C)[C@H]1CC[C@H]2[C@@H]3C(=O)C[C@@H]4C/C(=N/NC(=S)Nc5ccc(OC)cc5)CC[C@]4(C)[C@H]3CC[C@]12C: 128
CC1(C)S[C@@H]2[C@H](NC(=O)[C@H](N)c3ccc(O)cc3)C(=O)N2[C@H]1C(=O)O: 2
COC(=O)CC[C@@H](C)[C@H]1CC[C@H]2[C@@H]3/C(=N/NC(=S)Nc4ccc(Br)cc4)C[C@@H]4C/C(=N/NC(=S)Nc5ccc(Br)cc5)CC[C@]4(C)[C@H]3CC[C@]12C: 16
COC(=O)CC[C@@H](C)[C@H]1CC[C@H]2[C@@H]3CC[C@@H]4C/C(=N/NC(=S)Nc5ccccc5)CC[C@]4(C)[C@H]3CC(=O)[C@]12C: 32
COC(=O)CC[C@@H](C)[C@H]1CC[C@H]2[C@@H]3C/C(=N/NC(=S)Nc4ccc(Br)cc4)[C@@H]4C/C(=N/NC(=S)Nc5ccc(Br)cc5)CC[C@]4(C)[C@H]3CC[C@]12C: 2
COC(=O)CC[C@@H](C)[C@H]1CC[C@H]2[C@@H]3CC[C@@H]4C/C(=N/NC(=S)Nc5ccc(F)cc5)CC[C@]4(C)[C@H]3CC(=O)[C@]12C: 4

P = COC(=O)CC[C@@H](C)[C@H]1CC[C@H]2[C@@H]3C(=O)C[C@@H]4C/C(=N/NC(=S)Nc5ccc(F)cc5)CC[C@]4(C)[C@H]3CC[C@]12C
Q = COC(=O)CC[C@@H](C)[C@H]1CC[C@H]2[C@@H]3/C(=N/NC(=S)Nc4ccccc4)C[C@@H]4C/C(=N/NC(=S)Nc5ccccc5)CC[C@]4(C)[C@H]3CC[C@]12C
# argmax over MIC for candidates P and Q Kindly give the label for the entry you pick.
P

---

System: Pseudomonas aeruginosa
Assay: Antibacterial activity against Pseudomonas aeruginosa after 18 hrs by macrodilution method
Assay type: functional
recordedEndpoint: MIC (µg/mL)

COC(=O)CC[C@@H](C)[C@H]1CC[C@H]2[C@@H]3/C(=N/NC(=S)Nc4ccc(OC)cc4)C[C@@H]4C/C(=N/NC(=S)Nc5ccc(OC)cc5)CC[C@]4(C)[C@H]3CC[C@]12C: 4
COC(=O)CC[C@@H](C)[C@H]1CC[C@H]2[C@@H]3CC[C@@H]4C/C(=N/NC(=S)Nc5ccc(Br)cc5)CC[C@]4(C)[C@H]3CC(=O)[C@]12C: 2
COC(=O)CC[C@@H](C)[C@H]1CC[C@H]2[C@@H]3C/C(=N/NC(=S)Nc4cccc(F)c4)[C@@H]4C/C(=N/NC(=S)Nc5cccc(F)c5)CC[C@]4(C)[C@H]3CC[C@]12C: 128
COC(=O)CC[C@@H](C)[C@H]1CC[C@H]2[C@@H]3/C(=N/NC(=S)Nc4cccc(F)c4)C[C@@H]4C/C(=N/NC(=S)Nc5cccc(F)c5)CC[C@]4(C)[C@H]3CC[C@]12C: 32
COC(=O)CC[C@@H](C)[C@H]1CC[C@H]2[C@@H]3C(=O)C[C@@H]4C/C(=N/NC(=S)Nc5ccc(C)cc5)CC[C@]4(C)[C@H]3CC[C@]12C: 16

I = COC(=O)CC[C@@H](C)[C@H]1CC[C@H]2[C@@H]3CC[C@@H]4C/C(=N/NC(=S)Nc5ccc(OC)cc5)CC[C@]4(C)[C@H]3CC(=O)[C@]12C
II = COC(=O)CC[C@@H](C)[C@H]1CC[C@H]2[C@@H]3C(=O)C[C@@H]4C/C(=N/NC(=S)Nc5cccc6ccccc56)CC[C@]4(C)[C@H]3CC[C@]12C
Form: Entry with minimum MIC (choose one): I / II Return value: the label identifying the chosen record.
I

The reported measurements were obtained from ChEMBL document CHEMBL2203107.
